Value source: paper PMC6273213

molecular target: hAChE (Homo sapiens, UniProt P22303); construct: purchased Sigma-Aldrich; host or cells: HEK 293 cells; assay: biochemical; settings: human recombinant hAChE; at least six concentrations; read-out: IC50 ± SEM (μM) hAChE
Sequence (P22303 32-614): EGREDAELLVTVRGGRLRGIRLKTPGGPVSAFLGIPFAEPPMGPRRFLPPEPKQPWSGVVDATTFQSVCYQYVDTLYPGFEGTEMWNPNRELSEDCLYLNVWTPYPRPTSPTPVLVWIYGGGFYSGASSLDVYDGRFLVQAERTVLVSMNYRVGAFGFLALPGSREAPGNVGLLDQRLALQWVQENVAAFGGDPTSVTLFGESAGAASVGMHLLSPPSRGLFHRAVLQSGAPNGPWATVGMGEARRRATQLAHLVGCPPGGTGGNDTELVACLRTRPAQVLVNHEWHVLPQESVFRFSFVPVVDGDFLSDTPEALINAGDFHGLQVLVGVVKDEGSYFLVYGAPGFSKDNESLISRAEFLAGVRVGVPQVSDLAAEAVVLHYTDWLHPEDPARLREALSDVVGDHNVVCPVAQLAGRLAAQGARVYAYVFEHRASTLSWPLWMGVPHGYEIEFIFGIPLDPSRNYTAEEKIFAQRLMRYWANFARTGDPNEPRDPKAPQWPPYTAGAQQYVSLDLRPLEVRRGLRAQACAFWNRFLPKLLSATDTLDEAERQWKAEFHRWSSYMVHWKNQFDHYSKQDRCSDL
Quantity Name: IC50 (µM)

INSERT INTO measurements (structure, measured_target, unit_symbol, quantitative_result) VALUES
  ('COc1ccc2c(c1)C(=O)/C(=C/c1ccc(-c3cn(-c4ccnc5ccccc45)nn3)cc1)C2', 'hAChE (Homo sapiens, UniProt P22303)', 'µM', 109),
  ('COc1cc2c(cc1OC)C(=O)/C(=C/c1ccc(-c3cn(-c4ccnc5ccccc45)nn3)cc1)C2', 'hAChE (Homo sapiens, UniProt P22303)', 'µM', 128),
  ('O=C1/C(=C/c2ccc(-c3cn(-c4ccnc5ccccc45)nn3)cc2)Cc2ccc(Cl)cc21', 'hAChE (Homo sapiens, UniProt P22303)', 'µM', 147),
  ('COc1ccc2c(c1)C/C(=C\c1ccc(-c3cn(-c4ccnc5ccccc45)nn3)cc1)C2=O', 'hAChE (Homo sapiens, UniProt P22303)', 'µM', 114);

====

Documented inhibition at 100 µM across a set of compounds
biological target: hAChE (Homo sapiens); construct: purchased Sigma-Aldrich; host or cells: HEK 293 cells; test: biochemical; conditions: 100 μM compound; human recombinant hAChE; substrate ACThI
Quantity Name: inhibition at 100 µM

INSERT INTO results (structure, quantity_name, result) VALUES
  ('O=C1C(=Cc2ccc(-c3cn(-c4ccnc5ccccc45)nn3)cc2)Cc2cc3c(cc21)OCO3', 'inhibition at 100 µM', '0%'),
  ('COc1cc2c(cc1OC)C(=O)/C(=C/c1ccc(-c3cn(-c4ccnc5ccccc45)nn3)cc1)C2', 'inhibition at 100 µM', '29%'),
  ('COc1cc2c(cc1Cl)C/C(=C\c1ccc(-c3cn(-c4ccnc5ccccc45)nn3)cc1)C2=O', 'inhibition at 100 µM', '5.4%'),
  ('O=C1/C(=C/c2ccc(-c3cn(-c4ccnc5ccccc45)nn3)cc2)Cc2ccc(Cl)cc21', 'inhibition at 100 µM', '37.7%'),
  ('Cc1ccc2c(c1)C(=O)/C(=C/c1ccc(-c3cn(-c4ccnc5ccccc45)nn3)cc1)C2', 'inhibition at 100 µM', '9.1%'),
  ('COc1ccc2c(c1)C/C(=C\c1ccc(-c3cn(-c4ccnc5ccccc45)nn3)cc1)C2=O', 'inhibition at 100 µM', '48.1%'),
  ('COc1ccc2c(c1)C(=O)/C(=C/c1ccc(-c3cn(-c4ccnc5ccccc45)nn3)cc1)C2', 'inhibition at 100 µM', '55.7%');

====

target: hAChE (Homo sapiens, UniProt P22303); construct: purchased Sigma-Aldrich; host or cells: HEK 293 cells; assay: biochemical; settings: steady-state inhibition constant from replots of reciprocal plots; read-out: Ki ± SEM (μM) hAChE
Quantity Name: Ki

INSERT INTO assay_data (molecule, measured_target, quantity_name, result) VALUES
  ('COc1ccc2c(c1)C(=O)/C(=C/c1ccc(-c3cn(-c4ccnc5ccccc45)nn3)cc1)C2 [3h]', 'hAChE (Homo sapiens, UniProt P22303)', 'Ki', '245 µM'),
  ('COc1ccc2c(c1)C/C(=C\c1ccc(-c3cn(-c4ccnc5ccccc45)nn3)cc1)C2=O [3g]', 'hAChE (Homo sapiens, UniProt P22303)', 'Ki', '220 µM'),
  ('COc1cc2c(cc1OC)C(=O)/C(=C/c1ccc(-c3cn(-c4ccnc5ccccc45)nn3)cc1)C2 [3a]', 'hAChE (Homo sapiens, UniProt P22303)', 'Ki', '185 µM'),
  ('O=C1/C(=C/c2ccc(-c3cn(-c4ccnc5ccccc45)nn3)cc2)Cc2ccc(Cl)cc21 [3e]', 'hAChE (Homo sapiens, UniProt P22303)', 'Ki', '530 µM');

====

Documented inhibition at 100 µM across a set of compounds
biological target: hBChE (Homo sapiens); construct: hBChE EC 3.1.1.8, 50 units mg^−1 from human erythrocytes; purchased Sigma-Aldrich; host or cells: human erythrocytes; test: biochemical; settings: 100 μM compound; substrate BCThI
Sequence (P06276 29-602): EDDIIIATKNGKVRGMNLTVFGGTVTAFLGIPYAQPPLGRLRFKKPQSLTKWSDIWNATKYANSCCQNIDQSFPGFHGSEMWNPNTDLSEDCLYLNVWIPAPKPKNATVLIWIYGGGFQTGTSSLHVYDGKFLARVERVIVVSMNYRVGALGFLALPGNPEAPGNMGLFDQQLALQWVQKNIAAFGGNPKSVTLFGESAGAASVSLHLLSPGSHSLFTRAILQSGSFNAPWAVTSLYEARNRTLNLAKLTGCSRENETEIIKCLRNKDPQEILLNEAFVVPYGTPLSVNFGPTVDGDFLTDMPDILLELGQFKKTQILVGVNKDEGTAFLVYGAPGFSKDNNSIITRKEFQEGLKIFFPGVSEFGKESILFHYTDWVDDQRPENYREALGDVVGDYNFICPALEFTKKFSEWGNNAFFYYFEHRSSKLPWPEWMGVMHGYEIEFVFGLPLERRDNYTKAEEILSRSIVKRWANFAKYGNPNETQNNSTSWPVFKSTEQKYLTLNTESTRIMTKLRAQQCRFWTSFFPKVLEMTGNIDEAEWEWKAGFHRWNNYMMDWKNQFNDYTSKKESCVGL
Counter-ions that a name gives are not always drawn.
Quantity Name: inhibition at 100 µM (%)

INSERT INTO results (compound, measured_target, unit_symbol, quantitative_result) VALUES
  ('O=C1/C(=C/c2ccc(-c3cn(-c4ccnc5ccccc45)nn3)cc2)Cc2ccc(Cl)cc21', 'hBChE (Homo sapiens)', '%', 0),
  ('COc1ccc2c(c1)C/C(=C\c1ccc(-c3cn(-c4ccnc5ccccc45)nn3)cc1)C2=O', 'hBChE (Homo sapiens)', '%', 0.2),
  ('O=C1C(=Cc2ccc(-c3cn(-c4ccnc5ccccc45)nn3)cc2)Cc2cc3c(cc21)OCO3', 'hBChE (Homo sapiens)', '%', 5.2),
  ('Cc1ccc2c(c1)C(=O)/C(=C/c1ccc(-c3cn(-c4ccnc5ccccc45)nn3)cc1)C2', 'hBChE (Homo sapiens)', '%', 0),
  ('COc1cc2c(cc1OC)C(=O)C(CC1CCN(Cc3ccccc3)CC1)C2 (centres unmarked) [Donepezil, donepezil hydrochloride monohydrate, reference compound]', 'hBChE (Homo sapiens)', '%', 11.1),
  ('COc1cc2c(cc1Cl)C/C(=C\c1ccc(-c3cn(-c4ccnc5ccccc45)nn3)cc1)C2=O', 'hBChE (Homo sapiens)', '%', 6.2),
  ('COc1ccc2c(c1)C(=O)/C(=C/c1ccc(-c3cn(-c4ccnc5ccccc45)nn3)cc1)C2', 'hBChE (Homo sapiens)', '%', 0),
  ('COc1cc2c(cc1OC)C(=O)/C(=C/c1ccc(-c3cn(-c4ccnc5ccccc45)nn3)cc1)C2', 'hBChE (Homo sapiens)', '%', 0);
